FYI, the data here is from the nanobody polyreactivity screen of Harvey et al. (2022).

- experiment summary: yeast display, Sf9 membrane polyspecificity reagent, FACS + sequencing; frameworks hold sequencing errors
quantity measured: polyreactivity (PSR sort gate)

Guide cases for polyreactivity (PSR sort gate), answers given:
QVQLVESGGGLVQAGGSLRLSCAASGFTVYKYVKGWYRQAPGKERELVAAITTSGGSTYYADSVKGRFTISRDNPKNTVYLQMNSLKPEDTAVYYCNARSLHTSEGDYWGQGTQVTVSS: low polyreactivity
QVQLVESGGGLVQAGGSLRLSCAASGSIFEGYAMGWYRQAPGKERELVAAISWSSARTYYADSVKGRFTISRDNAKNTVYLQMNSLKPEDTAVYYCNAVARNNRNSRQRIPYDYWGQGTQVTVSS: high polyreactivity
QDQLVESGGGLVQAGVSLRLRSAASGFISQENAMGWYRQAPGKDRELVATISGSVGITYYADSVKGRFTISRDNAKNTVYLQMNSLKPEDTAVYYCNKEISYLSWGYDYWGLGTQVTVSS: low polyreactivity
QVQLVESGGGIVQAGGSLRLICAASGFTFSYYAMAWYRQAPGKEREFVAAITRSGSTYYADSVKGRFTISRENAKNTVYLQMISLKPEDTSVYYCAARFLYRYDYWGQGTQVTVSS: high polyreactivity

Let us move to another entry and its polyreactivity (PSR sort gate).
Which polyreactivity (PSR sort gate) value is on record for QVQLVESGGGVVQAGGSLRLSCAASGGIILEYVMGWYRQARGEERELVAAISWSGTSTYYADSVKGRFTISRDNAKNTVYLQMNSLKPEDTAVYYCAKSEGVYSGWYGVDDYDYWGQGTQVTVSS ?
low polyreactivity
